concentration at 1 h values for the molecules below.
# assaySummary: Brain and plasma concentrations in mice after intraperitoneal administration (LC-MS-MS), non-compartmental analysis
# Type: in vivo
# conditionNotes: male, Swiss-Webster, mouse, brain, ip, 10 mg/kg, 1 h, 10 mg/kg i.p.; read-out: mean (brain)

{"molecule": "Oc1ccc2c3c1O[C@H]1c4[nH]c5c(c4C[C@@]4(O)[C@@H](C2)N(CC2CC2)CC[C@]314)C[C@@]1(O)[C@H]2Cc3ccc(O)c4c3[C@@]1(CCN2CC1CC1)[C@H]5O4", "concentration at 1 h (ng/g)": 308}
{"molecule": "CC(C)[C@@H](CN1CC[C@@](C)(c2cccc(O)c2)[C@@H](C)C1)NC(=O)[C@H]1Cc2ccc(O)cc2CN1", "concentration at 1 h (ng/g)": 61.1}
